What growth inhibition was measured for each of the following?
Test: NCI Yeast Anticancer Drug Screen. Data for the sgs1 mgt1 strain (AID 161);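 note: 0% = growth of cultures given vehicle only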
Experimental Context: S. cerevisiae sgs1 mgt1 strain, at 50.0 µM, stronger effect = higher value
Compounds without any hit were thinned out: in the full panel of roughly 79,000, 15% have a hit.
Write down the numeric answer in % and omit the unit.

Challenge: So what's the measured growth inhibition for this one? CCCCOB1OC(c2ccccc2)(c2ccccc2)c2ccccc2C(c2ccccc2)(c2ccccc2)O1
Response given: 27.2

Challenge: So what's the measured growth inhibition for this one? CN(C)C(=O)NO
Response given: -11.8

Challenge: So what's the measured growth inhibition for this one? CC(=O)O/C(=C\C(=O)[C@H]1CC[C@H]2[C@@H]3CC[C@@H]4C[C@H](OC(C)=O)CC[C@]4(C)[C@H]3C(=O)C[C@]12C)C(F)(F)F
Response given: 5.25

Challenge: So what's the measured growth inhibition for this one? COc1ccc(CC2OCCC3c4ccccc4NC23)cc1OC (centres undefined)
Response given: 0.7

###

Test: NCI Yeast Anticancer Drug Screen. Data for the rad50 strain (AID 155);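 note: 0% = growth of vehicle-only cultures of the same strain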
Experimental Context: S. cerevisiae rad50 strain growth inhibition; at 50.0 µM
This is part of a sample that, as a whole, favours compounds with a hit. Of some 79,000 tested, about 15% had one in any assay. Activity calls are given as the source filed them. No stated cut-off is given here; in the data, active means growth inhibition above about 70%; inactive means the rest.
Give your call using only these classes: active, inactive

Challenge: So what was the verdict on CC(C)(C)C(=O)Nc1ccccc1 in this test?
Response given: inactive

Challenge: So what was the verdict on O=C(O)c1ccc(Cl)cc1C(=O)c1ccc(Cl)cc1 in this test?
Response given: inactive

Challenge: So what was the verdict on Cn1cc(C(=O)c2ccccc2)c2ccccc2c1=O in this test?
Response given: inactive

Challenge: So what was the verdict on CCCCCCCCC(Br)C(Br)CCCCCCCC(=O)NCCCOC (stereo unspecified) in this test?
Response given: inactive

Challenge: So what was the verdict on CCOC(=O)C(CC)(C(=O)OCC)C(C)CC (stereo unspecified) in this test?
Response given: inactive

Challenge: So what was the verdict on CCC12CC3(C(=O)OC)OC1C(O)CN1CCc4c(n3c3cc(OC)ccc43)C12 (stereo unspecified) in this test?
Response given: inactive

Challenge: So what was the verdict on Cc1cc2c(cc1C)C(O)CCC(=O)N2 (stereo unspecified) in this test?
Response given: inactive

Challenge: So what was the verdict on COCCCC(NC(=O)C(CC(C)C)NC(=O)OCc1ccc(OC)cc1)C(=O)OC (stereo unspecified) in this test?
Response given: inactive

Challenge: So what was the verdict on O=C1CSC(c2ccco2)N1CCN1C(=O)CSC1c1ccco1 (stereo unspecified) in this test?
Response given: inactive

Challenge: So what was the verdict on O=C/C(=C1/C=Cc2cc([N+](=O)[O-])ccc2S1)c1ccccc1 in this test?
Response given: inactive

Challenge: So what was the verdict on CO[C@H]1CC[C@@]2(C)C(=CC[C@H]3[C@@H]4CC[C@H]([C@H](C)CCCC(C)C)[C@@]4(C)CC[C@@H]32)C1 in this test?
Response given: inactive

Challenge: So what was the verdict on CCOc1ccccc1NC(=O)Nc1ccccc1Cl in this test?
Response given: inactive

Challenge: So what was the verdict on OC1CCC(C2C3CCCCC3C3CCCCC3C2C2CCC(O)CC2)CC1 (stereo unspecified) in this test?
Response given: active

Challenge: So what was the verdict on O=C(NC1COB(c2cccc([N+](=O)[O-])c2)OC1c1ccc([N+](=O)[O-])cc1)C(Cl)Cl (stereo unspecified) in this test?
Response given: inactive

Challenge: So what was the verdict on CC1(C)C2CCC(I)(C2)C1I (stereo unspecified) in this test?
Response given: inactive

Challenge: So what was the verdict on CC(=O)N=C1N(/C=C2\C(=O)Oc3ccccc3C2=O)C(=O)/C(=C/c2ccc3c(c2)OCO3)N1C in this test?
Response given: inactive

###

Test: NCI Yeast Anticancer Drug Screen. Data for the rad50 strain (AID 155);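 note: 0% = growth of vehicle-only cultures of the same strain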
Experimental Context: S. cerevisiae rad50 strain growth inhibition; at 50.0 µM; stronger effect = higher value
The panel holds about 79,000 compounds, 15% with a hit somewhere; the sample as a whole holds those more often.
What growth inhibition was measured for each of the following?
Write down the numeric answer in % and omit the unit.

Challenge: So what's the measured growth inhibition for this one? O=S(=O)(O)Cc1ccc(CS(=O)(=O)O)cc1
Response given: 14.7

Challenge: So what's the measured growth inhibition for this one? CC(O)CNC(=O)Nc1ccccc1 (stereo not drawn)
Response given: -26.9

Challenge: So what's the measured growth inhibition for this one? CCOC(=O)C(c1ccsc1)C(C(=O)OCC)c1cccs1 (stereo not drawn)
Response given: 3.3

###

Test: NCI Yeast Anticancer Drug Screen. Data for the mlh1 rad18 strain (AID 175)
Experimental Context: S. cerevisiae mlh1 rad18 strain growth inhibition; at 50.0 µM; stronger effect = higher value
This is part of a sample that, as a whole, favours compounds with a hit. Of some 79,000 tested, about 15% had one in any assay. Active and inactive are the calls of the source. Rule as the data show it: active = growth inhibition above about 70%; inactive = the rest.
What growth inhibition was measured for each of the following?

Challenge: So what's the measured growth inhibition for this one? COc1cc(Br)c(C=O)cc1OC
Response given: 5.5% (inactive)

Challenge: So what's the measured growth inhibition for this one? O=[N+]([O-])/C(Cl)=C(/C(Cl)=C(Cl)Cl)N1CCOCC1
Response given: 11.7% (inactive)

Challenge: So what's the measured growth inhibition for this one? CCCCCCCCCCCCCCCC(=O)NOCc1cscn1
Response given: 6.1% (inactive)

Challenge: So what's the measured growth inhibition for this one? CCOC(=O)c1c(Nc2ccccc2O)oc2ccccc12
Response given: 11.9% (inactive)

###

Test: NCI Yeast Anticancer Drug Screen. Data for the rad50 strain (AID 155);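 note: 0% = growth of vehicle-only cultures of the same strain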
Experimental Context: S. cerevisiae rad50 strain growth inhibition; at 50.0 µM
Compounds without any hit were thinned out: in the full panel of roughly 79,000, 15% have a hit. Calls of active or inactive are those of the source. Cut-off read from the data, not from the text of the source: active = growth inhibition above about 70%; inactive = the rest.
Give your call using only these classes: active, inactive

Challenge: So what was the verdict on O=Cc1ccc(-c2cccc([N+](=O)[O-])c2)s1 in this test?
Response given: inactive

Challenge: So what was the verdict on Clc1cc2nnn(C3CCCCO3)c2cc1Cl (stereo not given) in this test?
Response given: inactive

Challenge: So what was the verdict on CC(C)CCCC(C)C1CCC2(C)C3=C(CCC12C)C1(C)CCC(O)C(C)(C)C1CC3=O (stereo not given) in this test?
Response given: inactive

Challenge: So what was the verdict on FS(F)(F)(F)(F)c1cccc(NC(=S)SCc2ccc3c(c2)OCO3)c1 in this test?
Response given: active

Challenge: So what was the verdict on CC(=O)Nc1c(C)cc(S(=O)(=O)O)cc1C in this test?
Response given: inactive

###

Test: NCI Yeast Anticancer Drug Screen. Data for the sgs1 mgt1 strain (AID 161);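 note: 0% = growth of cultures given vehicle only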
Experimental Context: S. cerevisiae sgs1 mgt1 strain, at 50.0 µM
This is part of a sample that, as a whole, favours compounds with a hit. Of some 79,000 tested, about 15% had one in any assay. Calls of active or inactive are those of the source. Rule as the data show it: active = growth inhibition above about 70%; inactive = the rest.
Give your call using only these classes: true (1) = active, false (0) = inactive

Challenge: So what was the verdict on O=c1ccn(/C=C\c2nc3ccccc3[nH]c2=O)c(=S)[nH]1 in this test?
Response given: false (0)

Challenge: So what was the verdict on OCCN1OCCCC1c1ccccc1 (stereo unspecified) in this test?
Response given: false (0)

Challenge: So what was the verdict on c1ccc(CN2C3C4N(Cc5ccccc5)C2C2N(Cc5ccccc5)C(C(N2Cc2ccccc2)N4Cc2ccccc2)N3Cc2ccccc2)cc1 in this test?
Response given: false (0)

Challenge: So what was the verdict on CC(C)(O)/C1=C/C=C/CCCCCCCCCC1 in this test?
Response given: false (0)

Challenge: So what was the verdict on CCCCNC(=O)Nc1cccc(C)c1C in this test?
Response given: false (0)

Challenge: So what was the verdict on NC(=O)N/N=C/c1cccc([N+](=O)[O-])c1 in this test?
Response given: false (0)

Challenge: So what was the verdict on Cc1cc(=O)[nH]c(NNC(C#N)c2ccc([N+](=O)[O-])cc2)n1 (stereo unspecified) in this test?
Response given: false (0)

Challenge: So what was the verdict on O=C(NC12CC3CC(CC(C3)C1)C2)C(O)C(O)C(O)C(O)CO (stereo unspecified) in this test?
Response given: false (0)

Challenge: So what was the verdict on O=C(O)CNC(CO)(CO)CO in this test?
Response given: false (0)

Challenge: So what was the verdict on OCCNNCCO in this test?
Response given: false (0)

Challenge: So what was the verdict on N/N=C1\CC(=O)NC(=O)N1 in this test?
Response given: false (0)

Challenge: So what was the verdict on COc1ccc(-c2cc(-c3ccco3)c(C#N)c(=S)n2C2OC(COC(C)=O)C(OC(C)=O)C(OC(C)=O)C2OC(C)=O)cc1 (stereo unspecified) in this test?
Response given: false (0)

Challenge: So what was the verdict on CCC(C)NC(=O)/C=C/c1ccccc1 (stereo unspecified) in this test?
Response given: false (0)

Challenge: So what was the verdict on CC1=N/C(=C/c2ccccc2)C(=O)O1 in this test?
Response given: false (0)

Challenge: So what was the verdict on C[C@H]1C[C@](C)(CO)Oc2oc3ccccc3c(=O)c21 in this test?
Response given: false (0)

Challenge: So what was the verdict on Cc1cc(=O)n2c(cc3cccccc32)n1 in this test?
Response given: false (0)

Challenge: So what was the verdict on O=C(Cc1ccccc1)N(C(=O)c1ccccc1)c1ccccc1 in this test?
Response given: false (0)

Challenge: So what was the verdict on c1ccc(C2=Nc3ccccc3C(c3ccccc3)=Nc3ccccc32)cc1 in this test?
Response given: false (0)

Challenge: So what was the verdict on O/N=C(/CC(O)(C(F)(F)F)C(F)(F)F)c1ccccc1 in this test?
Response given: false (0)

Challenge: So what was the verdict on COC(=O)[C@H]1O[C@H]1c1cccc[n+]1[O-] in this test?
Response given: false (0)

Challenge: So what was the verdict on O=C(/C=C/c1ccccc1)NCC(O)CO (stereo unspecified) in this test?
Response given: false (0)

Challenge: So what was the verdict on O=C(O)C(C(=O)O)C1CCCCC1 in this test?
Response given: false (0)

Challenge: So what was the verdict on CC(C)(C)/C=N/Nc1ccc([N+](=O)[O-])cc1[N+](=O)[O-] in this test?
Response given: false (0)

Challenge: So what was the verdict on CCOC(=O)c1c(-c2ccc([N+](=O)[O-])cc2)c(C#N)n(-c2ccccc2)c1C in this test?
Response given: false (0)

Challenge: So what was the verdict on COc1ccc(-c2cc(C)n(C3OC(CO)C(O)C(O)C3O)c(=S)c2C#N)cc1 (stereo unspecified) in this test?
Response given: false (0)

Challenge: So what was the verdict on Cc1cccn(C(=O)c2ccccc2)c1=N in this test?
Response given: false (0)

Challenge: So what was the verdict on CC(=O)NC(C)C#N (stereo unspecified) in this test?
Response given: false (0)

Challenge: So what was the verdict on [C-]#[N+]C(=C\c1ccc(O)cc1)/C(=C/c1ccc(O)cc1)[N+]#[C-] in this test?
Response given: true (1)

Challenge: So what was the verdict on CC(=O)OCc1ccc(C)cc1 in this test?
Response given: false (0)

Challenge: So what was the verdict on CC1CCCCc2nc3c(c(=O)n21)CCCC3 (stereo unspecified) in this test?
Response given: false (0)

Challenge: So what was the verdict on CC(=O)Nc1ccc(N=Nc2cccc(C)c2)cc1C in this test?
Response given: false (0)

Challenge: So what was the verdict on CCN(CC)C(=O)CC(C)(C)O in this test?
Response given: false (0)

Challenge: So what was the verdict on COc1ccc(/C=C/C(=O)c2c(-c3ccccc3)nn(C)c(=O)c2N2CCCC2)cc1 in this test?
Response given: false (0)

Challenge: So what was the verdict on CSC1(C)CC2C(CC1N1CCOCC1)C2(C)C (stereo unspecified) in this test?
Response given: false (0)

Challenge: So what was the verdict on CC(C)(O)CCC(O)C(C)(O)C1CCC2(O)C3=CC(=O)C4(O)CC(O)C(O)CC4(C)C3CCC12C (stereo unspecified) (tested in a mixture with another compound) in this test?
Response given: false (0)

Challenge: So what was the verdict on CC(=O)CC(=O)Nc1ccc(C(=O)O)c(O)c1 in this test?
Response given: false (0)
